test system: SK-MEL-28 melanoma; experiment: NCI tumour cell line growth inhibition, 48 h
Below, each of the compounds is paired with its reported TGI value.
Enter your answer as a number in µM; do not include the unit.

compound	unitsText	TGI
CCNCCNc1cc(-c2ccc(F)cc2)c(C#N)c2nc3ccccc3n12	µM	3.59
Fc1ccccc1C1CC(C(c2ccccc2)c2ccccc2)=Nc2ccccc2S1 (centres undefined)	µM	25.1

# input compound: `COc1ccc(/C=C2\COc3ccc(-c4ccccc4)cc3C2=O)cc1O` ; wanted: its TGI
3.96

Please do the same for `CC(C)(C)CC(C)(C)c1ccc(OCCOCCSC(=N)N)cc1` as well.
3.24

Then this compound: CC(C)[Si](OC1=CCCCCC12C(=O)N(C)c1ccccc12)(C(C)C)C(C)C (centres undefined)
60.4

What about this compound? `O=c1[nH]c(=S)[nH]c(O)c1/C=C1\C=CC=N1`
48.5

* * *

TGI listing for selected molecules.
tested on: HL-60(TB) leukemia; experiment: NCI tumour cell line growth inhibition, 48 h
Only the number, expressed in µM, is required.

>>> df
                           smilesnotation  endpointlabel  unitstext  recordedresult
0  N#Cc1nc(-c2ccccc2)oc1S(=O)(=O)N1CCOCC1            TGI         µM            4.79

Checklist item: TGI tested on HL-60(TB) leukemia, entry `CN(/N=C\c1ccc2ccccc2c1)C1=NCCCCN1` , value?
39.9

One more molecule: `C=CCn1c(=O)c(C)cn(/C(=C/C(=O)OCC)C(=O)OCC)c1=O`
5.48

* * *

tested on: SK-MEL-2 melanoma; assay: NCI tumour cell line growth inhibition, 48 h
The entries below are paired with their reported TGI.
Please respond with the number in µM and leave the unit unwritten.

>>> df
                                   compound  endpointlabel  recordedresult
0         CN(/N=C\c1ccc2ccccc2c1)C1=NCCCCN1            TGI            45.4
1  Cc1cc(C)nc(NS(=O)(=O)c2ccc(NC(=O)c3cccc4cc5ccccc5nc34)cc2)n1            TGI            85.6
2   CC(C)(C)CC(C)(C)c1ccc(OCCOCCSC(=N)N)cc1            TGI            3.49

We next turn to a different compound, shown below.
Bench note: what TGI did CC(C)[Si]1(C(C)C)OCC2OC(n3ccc(=O)[nH]c3=O)C(O)(CO)C2O[Si](C(C)C)(C(C)C)O1 (stereo not given) show?
31

* * *

tested on: NCI-H460 lung
Your reply should match one of these outcome classes. active, inactive

Past entries and their recorded results:
compound	labelValue
O=C(/C=C/c1ccco1)Nc1ncc(Cc2ccc(F)cc2)s1	active
O=C(NNS(=O)(=O)c1cc(C(F)(F)F)cc(C(F)(F)F)c1)c1cnn(-c2ccc(Cl)cc2)c1C(F)(F)F	inactive
O=Nc1c(O)ccc2ccccc12	inactive
CCNCCNc1cc(-c2ccc(F)cc2)c(C#N)c2nc3ccccc3n12	inactive
COc1ccc2c3c(c(OCCCN(C)C)nc2c1)-c1ccc(Cl)cc1C3=O	inactive

Outcome logged for C[Se]C(=O)CC1=C2C=C(F)C=CC2/C(=C\c2ccc(S(C)=O)cc2)C1C (stereo not given) in this assay:
active

Next entry: Cn1cnc([N+](=O)[O-])c1Sc1ncnc2c1ncn2C1OC(CO)C(O)C1O (stereo not given)
inactive

Input `Cn1ccnc1C(=O)/C=C/c1ccc(C(=O)Nc2nc3ccccc3[nH]2)cc1`
inactive

One more compound: C[C@H]1[C@@H](OCC(CO[C@H]2O[C@@H]3O[C@@]4(C)CC[C@H]5[C@H](C)CC[C@@H]([C@H]2C)[C@@]35OO4)=NOCC(=O)O)OC2O[C@@]3(C)CC[C@H]4[C@H](C)CC[C@@H]1[C@@]24OO3 (stereo not given in full)
active

Moving on to the next compound: `Cn1c(=O)c2[nH]c(COc3ccc(C(C)(C)C)cc3)nc2n(C)c1=O`
inactive

* * *

tested on: HCT-116 colon; test: NCI tumour cell line growth inhibition, 48 h
Recorded TGI values for a group of compounds are listed next.
Express your answer in µM, writing the number without its unit.

What does the data say about its TGI? Entry: `CCN(CC)CCCNC(=O)Cc1ccccc1Nc1c(Cl)cccc1Cl`
27.2

Try this compound too: C=C(Cl)C(Cl)(CBr)CCC(Cl)C(C)(C)Cl (stereo not given)
2.02

* * *

test system: UACC-62 melanoma; experiment: NCI tumour cell line growth inhibition, 48 h; in the data active = GI50 below about 0.43 µM; inactive = the rest
Lab note: assign the record to one of YES for active, NO for inactive

compound	systemName	labelValue
CC[C@H](C)[C@H](NC(=O)C12C3C4C1C1C2C3C41NC(C)=O)C(=O)N(C)[C@H](C[C@@H](OC(C)=O)c1nc(C(=O)N[C@@H](Cc2ccccc2)C[C@H](C)C(=O)OC)cs1)C(C)C (stereo not given in full)	UACC-62 melanoma	YES
O=C(/C=C/c1ccco1)Nc1ncc(Cc2ccc(F)cc2)s1	UACC-62 melanoma	YES
CN(C)c1ccc(/C=C/c2ccnc3ccccc23)cc1	UACC-62 melanoma	NO
c1ccc(-c2nc(N3CCNCC3)c3nc(-c4ccccc4)oc3n2)cc1	UACC-62 melanoma	NO
COc1ccc(-c2ccc(-c3ccc(C(=N)N)cn3)s2)cc1Cl	UACC-62 melanoma	NO

Attention now shifts to the item below.
Write down the call the test reported for this compound. Item: `Oc1ccccc1-n1c(-c2ccccc2)ccc1-c1ccccc1`
NO

* * *

system: HCC-2998 colon; assay: NCI tumour cell line growth inhibition, 48 h; in the data active = GI50 below about 0.43 µM; inactive = the rest
// allowed return values: label 1 = active, label 0 = inactive

A selection of reference data follows.
>>> print(df.to_string())
                                   compound  labelvalue
0  C[Se]C(=O)CC1=C2C=C(F)C=CC2/C(=C\c2ccc(S(C)=O)cc2)C1C (stereo not given)     label 0
1  COc1ccc(C(O)c2cc3c(N)c(C(=O)Nc4cccc(Br)c4)sc3nc2C)cc1 (stereo not given)     label 1
2  CCCC[C@@H](COC(=O)N(Cc1cccs1)Cc1cccs1)NC(=O)N[C@@H](CC(=O)OC)c1ccc2c(c1)OCO2     label 0
3                      O=Nc1c(O)ccc2ccccc12     label 0
4  CC#CC(=O)N1CCC[C@H]1c1nc(-c2ccc(C(=O)Nc3ccccn3)cc2)c2c(N)nccn12     label 0

Call for entry C=C(C)[C@H]1CC/C(C)=C/CCC(C)C(=O)CC/C(CO)=C\[C@@H]1O (stereo not given in full) :
label 0

How about this compound: `COc1ccc(/C=C(\C#N)c2cc3ccccc3n2C)cc1`
label 0

* * *

test system: LXFL 529 NSCLC; assay: NCI tumour cell line growth inhibition, 48 h
The reader will find reported TGI values listed item by item below.

Worked cases, answers included:
>>> df
                                   molecule  endpointlabel  recordedresult
0  CCOC(=O)C(C)(C)Oc1ccc2c(-c3ccc(Cl)cc3)cc(=O)oc2c1            TGI        > 100 µM
1  COC(=O)C1=C(C(=O)OC)C2(C(=O)OC)OC1(OC)C(C1(C(=O)OC)C(C(=O)OC)=C1C(=O)OC)=C2C(=O)OC (stereo not given)            TGI        > 100 µM
2  Cc1cc(C)nc(NS(=O)(=O)c2ccc(NC(=O)c3cccc4cc5ccccc5nc34)cc2)n1            TGI        > 100 µM
3   Cc1ccc(NC(=O)C(=O)Cc2nc3ccccc3o2)c(C)c1            TGI        > 100 µM
4  CCOC(=O)C(C[Si](C)(C)C)P(=O)(OCC)OCC (stereo not given)            TGI        > 100 µM
5  CCN1/C(=C/C(C)=C/c2sc3ccccc3[n+]2CC)Sc2ccccc21            TGI          1.2 µM

Could you share which TGI value was measured for COc1cc(CC2c3cc(OC)c(OC)cc3CCN2C)c(Oc2cc3c(cc2OC)-c2c(OC)c(OC)c(OC)c4c2C(C3)N(C)CC4)cc1OC (stereo not given) ?
27.1 µM

Next molecule: `O=c1[nH]c(=S)[nH]c(O)c1/C=C1\C=CC=N1`
21.9 µM

Again, but for `CC1(C)OCN(c2ccc(Cl)cc2)Cn2c1nc1ccccc12`
> 100 µM

Try this molecule next: `O=C1C(c2ccccc2)=C(c2ccccc2)C(c2ccc(CCCCCCc3ccc(C4=C(c5ccccc5)C(=O)C(c5ccccc5)=C4c4ccccc4)cc3)cc2)=C1c1ccccc1`
> 100 µM

* * *

system: OVCAR-8 ovarian; assay: NCI tumour cell line growth inhibition, 48 h
endpointLabel: GI50

These recorded examples may help you get a feel for the data.
In [3]: df
Out[3]:
                                   compound  endpointlabel  recordedresult
0                  CCSC1=CC(=O)c2ccccc2C1=O           GI50         1.75 µM
1  Cn1ccnc1C(=O)/C=C/c1ccc(C(=O)Nc2nc3ccccc3[nH]2)cc1           GI50         8.99 µM
2      O=C(/C=C/c1cccc(Cl)c1)c1ccc(Cl)cc1Cl           GI50           12 µM
3  O=[N+]([O-])c1ccc2c(N=Nc3c(O)ccc4ccccc34)c(O)cc(S(=O)(=O)O)c2c1           GI50         31.3 µM
4  COc1ccc(-c2ccc(-c3ccc(C(=N)N)cn3)s2)cc1Cl           GI50         2.09 µM
5  COc1ccccc1-n1c(SCc2cc(OC)c(OC)c(OC)c2)nc2ccc(Cl)cc2c1=O           GI50         8.86 µM

Name the reported GI50 value associated with the compound `O=C1/C(=C/c2cccs2)CCC/C1=C\c1cccs1`
51.6 µM

How about this compound: `COc1ccc(/C=C(\C#N)c2cc3ccccc3n2C)cc1`
0.56 µM

Would you mind doing `CC(=O)N1CC(F)(F)c2c(Sc3ncc(N4CCC5(CC4)COC[C@H]5N)nc3N)cccc21` as well?
35 µM

For `COc1ccc2c3c(c(OCCCN(C)C)nc2c1)-c1ccc(Cl)cc1C3=O` then?
5.98 µM

Also check `CC#CC(=O)N1CCC[C@H]1c1nc(-c2ccc(C(=O)Nc3ccccn3)cc2)c2c(N)nccn12`
> 80.4 µM

Again, but for COc1cc(C2C(C#N)=C(N)OC3=C2C(=O)c2ccccc2C3=O)cc(OC)c1OC (configuration not stated)
1.12 µM
